- ASSAY_EXPLANATION: Toxicity liver stage against HepG2, at 10uM
- Type: cell-based
- Parameters: test concentration 10 uM, cell line HepG2-A16-CD81EGFP
- MEASUREMENT_PARAMETERS: human, HepG2-A16-CD81EGFP cells; read-out: INHIBITION
PROPERTY_MEASURED: cytotoxicity at 10 µM (%)
Give the quantity in %, number only.

# annotated cases, reported cytotoxicity at 10 µM shown
{"columns": ["COMPOUND", "UNIT_SYMBOL", "cytotoxicity at 10 µM"],
 "data": [
  ["Cc1noc(C)c1CN1CCCC1c1c(C)nn(C)c1Cl (centres undefined)", "%", -2],
  ["O=C1CN(Cc2cn(CC3CCCN(C4CCSCC4)C3)nn2)CCN1 (centres undefined)", "%", -49.3],
  ["Cc1cccc2cc(CN3CCC(N4CCOCC4)CC3)c(=O)[nH]c12", "%", -12],
  ["Cc1ccsc1C(=O)Nc1cnn(CC(=O)NC2CCCC2)c1", "%", -1.65]
]}

We next turn to a different compound, shown below.
Request: Fill blank: measured cytotoxicity at 10 µM of the compound CC(C)(O)CCc1cccc(C(=O)N2CCC3(CCOCC3)CC2)c1 is ____.
Response: 1.14

* * *

- ASSAY_EXPLANATION: Toxicity liver stage against HepG2, at 10uM
- Assay type: cell-based
- Set-up: test concentration 10 uM, cell line HepG2-A16-CD81EGFP
- MEASUREMENT_PARAMETERS: human, HepG2-A16-CD81EGFP cells; read-out: INHIBITION
PROPERTY_MEASURED: cytotoxicity at 10 µM (%)
Give the quantity in %, number only.

{"columns": ["COMPOUND", "cytotoxicity at 10 µM (%)"],
 "data": [
  ["COCCCN(C)C(=O)Cn1cccc(OC)c1=O", 7.52],
  ["CS(=O)(=O)Cc1cccc(CNS(=O)(=O)c2ccc(F)c(F)c2)c1", 1.33],
  ["CS(=O)(=O)Cc1noc(CN2CCN(c3ccccc3Cl)CC2)n1", 5.09]
]}

Request: Fill blank: measured cytotoxicity at 10 µM of the compound CC(C)c1n[nH]c(C2CN(C(=O)c3cc(C(N)=O)cs3)CCO2)n1 (stereo unspecified) is ____.
Response: 1.17

Request: Likewise for CC(C)c1nccn1C1CCCN(C(=O)CCCc2ccccn2)C1 (stereo unspecified) ?
Response: -9.02

Request: Likewise for CN(Cc1ccncn1)c1nccc(CCC(F)(F)F)n1 ?
Response: 11.2

Request: Likewise for O=C(CCc1ccccc1)NC1CCC2(CCC(=O)N2)CC1 (stereo unspecified) ?
Response: 1.35

Request: Likewise for Cc1ccn(-c2ccc(C(=O)N3CCCC(C(N)=O)C3)cc2)n1 (stereo unspecified) ?
Response: -5.38

Request: Likewise for O=C(NCCN1CCCC1)c1nc2c(o1)CN(C(=O)c1cccnc1)C2 ?
Response: -1.08

Request: Likewise for Cc1ccsc1CN1C[C@@H]2COC[C@]2(COCC(=O)N(C)C)C1 ?
Response: -4.55

Request: Likewise for O=C1NCCCc2[nH]c(C3CCCN(C(=O)C4CC4)C3)nc21 (stereo unspecified) ?
Response: 3.55

* * *

- ASSAY_EXPLANATION: Toxicity liver stage against HepG2, at 10uM
- Type: cell-based
- Parameters: test concentration 10 uM, cell line HepG2-A16-CD81EGFP
- MEASUREMENT_PARAMETERS: human, HepG2-A16-CD81EGFP cells; read-out: INHIBITION
The compounds listed here are annotated with their cytotoxicity at 10 µM.
Give the quantity in %, number only.

# annotated cases, reported cytotoxicity at 10 µM shown
{"columns": ["COMPOUND", "UNIT_SYMBOL", "cytotoxicity at 10 µM"],
 "data": [
  ["CC(c1ncc(C(C)(C)C)o1)N1CCN(c2ccncc2)CC1 (stereo unspecified)", "%", 18.5],
  ["N#Cc1cccnc1N1CCC(OCc2ccccc2)CC1", "%", -7.43],
  ["Cc1noc(C)c1CN1CC[C@@H]2O[C@@H](COCC3CC3)CC[C@@H]21", "%", 6.46],
  ["Cc1nccn1CC1CCCN1CCCc1nc(-c2cccs2)no1 (stereo unspecified)", "%", -1.84],
  ["Cc1ccc(-c2nc3c([nH]2)CCNC3C(=O)O)c2cccnc12 (stereo unspecified)", "%", 5]
]}

Request: Fill blank: measured cytotoxicity at 10 µM of the compound Cc1ccc(CC(=O)N2CCCC(c3cc(C)[nH]n3)C2)cn1 (stereo unspecified) is ____.
Response: -7.2

Request: Likewise for CCOC(=O)C1CC2(CCCCC2)N2CCC(=O)N12 (stereo unspecified) ?
Response: 2.63

Request: Likewise for CS(=O)(=O)N1C[C@H]2CNC[C@@]2(C(=O)NCCCc2ccccc2)C1 ?
Response: 0.334

Request: Likewise for O=C(c1cccc(F)c1)N1CC[C@@H]2CN(c3ncccn3)CCO[C@@H]2C1 ?
Response: -71.5

Request: Likewise for CCC(C)NC(=O)c1snnc1-c1ccc(OC)cc1 (stereo unspecified) ?
Response: 6.93

Request: Likewise for O=C(COc1ccccc1)N1CCC[C@]2(C[C@H](OCC3CC3)CO2)C1 ?
Response: 8.68

Where do these numbers come from? They come from ChEMBL document CHEMBL4513216.
